B1: Myocardin, residues 363 to 406; numbered along this chain, Q8IZQ8 (parent)
chain: KPGPLPPNLDDLKVSELRQQLRIRGLPVSGTKTALMDRLRPFQD

# Variants of: B1
# assay.comment: abundance fitness (aPCA) (normalised: wild type 0, dead -1); higher = more abundant; growth selection in yeast, the domain comes from the species named
# test.context: Homo sapiens
Parameter: abundance fitness. Scope: all listed entries.
Just the number.

Completed entries (count: 4):
F42V: -0.211
L12P: -0.899
P6A: -0.02
P6I: -0.361

q: Could you share which abundance fitness value was measured for L39Q ?
a: -0.465

q: Moving on to R38F
a: -0.907

q: Again, but for L17H
a: -0.878
